assay: Toxicokinetic evaluation of 14-day repeated intragastric administration to SD rats; type: in vivo; settings: both sexes, SD, rat, plasma, po, 0.5 mg/kg, repeated intragastric 0.5 mg/kg, Day 7, read-out: Area under curve AUC
measurement_type: AUC (ng·h/mL)
Reply with just the number (in ng·h/mL).

Req: Suppose we examine the compound CC(C)n1c(=O)cc(N[C@@H](C)c2ccccc2)[nH]c1=O [MYK-461, reference compound] ; what AUC value has been reported?
Resp: 888

----------
experiment: Toxicokinetic evaluation of 14-day repeated intragastric administration to SD rats; format: in vivo; settings: both sexes, SD, rat, plasma, po, 5 mg/kg, repeated intragastric 5 mg/kg, Day 1, read-out: Clearance CL/F
measurement_type: CL/F at 1 day
Put your answer as a value accompanied by its unit after it.

Req: Suppose we examine the compound "Cc1ccc(F)c([C@H](C)Nc2nc(=O)n(C3CCOCC3)c(=O)[nH]2)c1" ; what CL/F at 1 day value has been reported?
Resp: 3.06 mL/min/kg
